# Assayed System: hFASN enzyme (full length) (Homo sapiens)
# Construct: 10 μL hFASN enzyme (full length, 300 ng, purified in house); made in house
# Sequence (P49327 whole entry): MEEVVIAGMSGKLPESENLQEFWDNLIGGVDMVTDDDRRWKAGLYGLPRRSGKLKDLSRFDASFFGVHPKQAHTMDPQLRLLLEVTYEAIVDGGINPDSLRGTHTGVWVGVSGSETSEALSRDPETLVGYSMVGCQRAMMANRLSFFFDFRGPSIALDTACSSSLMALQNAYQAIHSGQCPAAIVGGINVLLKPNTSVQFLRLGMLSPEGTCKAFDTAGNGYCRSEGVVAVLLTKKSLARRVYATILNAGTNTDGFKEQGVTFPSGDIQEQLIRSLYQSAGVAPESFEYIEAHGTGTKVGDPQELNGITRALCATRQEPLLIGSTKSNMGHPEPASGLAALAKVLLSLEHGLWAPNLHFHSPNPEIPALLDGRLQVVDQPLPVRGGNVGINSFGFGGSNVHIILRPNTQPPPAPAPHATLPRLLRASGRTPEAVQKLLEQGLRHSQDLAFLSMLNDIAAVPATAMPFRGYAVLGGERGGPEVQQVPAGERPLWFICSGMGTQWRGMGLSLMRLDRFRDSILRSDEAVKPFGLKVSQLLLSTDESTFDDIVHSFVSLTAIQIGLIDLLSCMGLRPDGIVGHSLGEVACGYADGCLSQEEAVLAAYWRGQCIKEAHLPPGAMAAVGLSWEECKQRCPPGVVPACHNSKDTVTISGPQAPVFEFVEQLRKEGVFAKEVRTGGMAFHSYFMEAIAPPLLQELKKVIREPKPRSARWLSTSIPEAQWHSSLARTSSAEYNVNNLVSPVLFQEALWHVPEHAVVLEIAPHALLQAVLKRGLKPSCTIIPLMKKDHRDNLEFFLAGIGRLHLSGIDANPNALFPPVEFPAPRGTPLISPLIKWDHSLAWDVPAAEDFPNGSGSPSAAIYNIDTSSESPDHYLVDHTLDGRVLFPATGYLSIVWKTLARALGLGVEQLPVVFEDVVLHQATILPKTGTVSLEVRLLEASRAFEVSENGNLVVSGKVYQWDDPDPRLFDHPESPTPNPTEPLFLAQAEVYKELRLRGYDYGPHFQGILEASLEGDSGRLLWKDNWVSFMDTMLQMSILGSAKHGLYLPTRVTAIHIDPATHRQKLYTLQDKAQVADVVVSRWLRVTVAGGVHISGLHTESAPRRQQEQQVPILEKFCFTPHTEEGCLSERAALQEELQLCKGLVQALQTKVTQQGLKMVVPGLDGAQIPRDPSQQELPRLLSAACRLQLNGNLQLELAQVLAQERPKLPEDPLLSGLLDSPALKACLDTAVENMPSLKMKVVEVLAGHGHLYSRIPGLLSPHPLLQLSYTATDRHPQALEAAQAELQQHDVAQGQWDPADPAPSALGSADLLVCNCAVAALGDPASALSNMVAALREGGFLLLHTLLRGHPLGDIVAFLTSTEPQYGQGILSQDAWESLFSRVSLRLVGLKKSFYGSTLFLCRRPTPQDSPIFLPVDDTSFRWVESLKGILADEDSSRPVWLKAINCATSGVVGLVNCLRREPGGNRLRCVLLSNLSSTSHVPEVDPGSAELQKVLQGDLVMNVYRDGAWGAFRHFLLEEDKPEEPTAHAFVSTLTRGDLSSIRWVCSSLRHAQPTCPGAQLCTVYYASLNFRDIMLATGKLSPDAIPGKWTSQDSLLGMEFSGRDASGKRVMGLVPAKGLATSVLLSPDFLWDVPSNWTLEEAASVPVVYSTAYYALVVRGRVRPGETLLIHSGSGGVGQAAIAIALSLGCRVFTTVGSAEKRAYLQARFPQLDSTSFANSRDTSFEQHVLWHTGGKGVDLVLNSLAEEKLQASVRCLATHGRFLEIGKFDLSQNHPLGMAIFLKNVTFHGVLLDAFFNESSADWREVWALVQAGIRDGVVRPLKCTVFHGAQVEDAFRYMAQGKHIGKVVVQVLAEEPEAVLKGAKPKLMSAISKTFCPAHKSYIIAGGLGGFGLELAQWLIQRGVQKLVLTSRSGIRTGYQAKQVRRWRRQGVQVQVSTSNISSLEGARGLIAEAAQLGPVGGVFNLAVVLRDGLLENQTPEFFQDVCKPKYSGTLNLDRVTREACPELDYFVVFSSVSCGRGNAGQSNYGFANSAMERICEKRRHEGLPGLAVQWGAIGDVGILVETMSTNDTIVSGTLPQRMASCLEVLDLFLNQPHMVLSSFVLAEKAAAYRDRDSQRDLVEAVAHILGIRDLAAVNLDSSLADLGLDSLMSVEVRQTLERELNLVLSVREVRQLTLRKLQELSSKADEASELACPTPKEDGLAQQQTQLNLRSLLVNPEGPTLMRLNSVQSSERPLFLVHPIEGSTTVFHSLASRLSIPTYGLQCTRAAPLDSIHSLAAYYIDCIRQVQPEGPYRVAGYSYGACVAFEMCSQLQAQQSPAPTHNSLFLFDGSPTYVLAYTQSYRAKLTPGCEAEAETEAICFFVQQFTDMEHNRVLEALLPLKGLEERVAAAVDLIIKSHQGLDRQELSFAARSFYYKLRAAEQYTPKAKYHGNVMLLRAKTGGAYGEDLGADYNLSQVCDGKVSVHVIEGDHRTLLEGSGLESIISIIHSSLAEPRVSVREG
# Protocol Summary: Fatty Acid Synthase (FASN) inhibition scintillation proximity assay
# Format: biochemical
# Details: read-out: Human FASN % inhibition @ 10 μM, 10 μM test compound
I would appreciate it if you labelled entries MET when inhibition at 10 µM is 60% or higher, otherwise NOT MET.

Worked examples follow.
[
  {
    "Molecule": "O=C([C@H]1CCCO1)N1CC[C@@H](CN2C(=O)C3(CCOC3)N=C2c2ccc(-c3ccc4cccnc4c3)cc2)C1 (stereo partly shown)",
    "Assayed System": "hFASN enzyme (full length) (Homo sapiens)",
    "Category Label": "MET"
  },
  {
    "Molecule": "COC(=O)N1CC2(C1)N=C(c1ccc(-c3ccc4cccnc4c3)cc1)N(C[C@@H]1CCN(C(=O)c3nccs3)C1)C2=O",
    "Assayed System": "hFASN enzyme (full length) (Homo sapiens)",
    "Category Label": "NOT MET"
  },
  {
    "Molecule": "Nc1cc(-c2ccc(C3=NC4(CC4)C(=O)N3C[C@@H]3CCN(C(=O)C4CC4)C3)cc2)ccn1",
    "Assayed System": "hFASN enzyme (full length) (Homo sapiens)",
    "Category Label": "MET"
  },
  {
    "Molecule": "Cn1cc2cc(-c3ccc(C4=NC5(CC5)C(=O)N4CC4CN(C(=O)C5CC5)C4)c(F)c3)ccc2n1",
    "Assayed System": "hFASN enzyme (full length) (Homo sapiens)",
    "Category Label": "MET"
  },
  {
    "Molecule": "N#Cc1cc2cc(-c3ccc(C4=NC5(CC5)C(=O)N4CC4CN(C(=O)C5CC5)C4)cc3F)ccc2o1",
    "Assayed System": "hFASN enzyme (full length) (Homo sapiens)",
    "Category Label": "MET"
  },
  {
    "Molecule": "O=C(C1CC1)N1CC[C@@H](CN2C(=O)C3(CC3)N=C2c2ccc(-c3cccc(SC4CC4)c3)cc2F)C1",
    "Assayed System": "hFASN enzyme (full length) (Homo sapiens)",
    "Category Label": "MET"
  },
  {
    "Molecule": "O=C(C1CC1)N1CC[C@@H](CN2C(=O)C3(CCN(CCO)CC3)N=C2c2ccc(-c3ccc4cnccc4c3)cc2)C1",
    "Assayed System": "hFASN enzyme (full length) (Homo sapiens)",
    "Category Label": "MET"
  },
  {
    "Molecule": "O=C(C1CC1)N1CC[C@@H](CN2C(=O)C3(CC3)N=C2c2ccc(-c3cccc(F)c3)cc2)C1",
    "Assayed System": "hFASN enzyme (full length) (Homo sapiens)",
    "Category Label": "MET"
  },
  {
    "Molecule": "CS(=O)(=O)c1cccc(-c2ccc(C3=NC4(CC4)C(=O)N3CC3CN(C(=O)C4CC4)C3)c(F)c2)c1",
    "Assayed System": "hFASN enzyme (full length) (Homo sapiens)",
    "Category Label": "NOT MET"
  },
  {
    "Molecule": "O=C(C1CC1)N1CC[C@@H](CN2C(=O)C3(CCCC3)N=C2c2ccc(-c3ccc4ccncc4c3)cc2)C1",
    "Assayed System": "hFASN enzyme (full length) (Homo sapiens)",
    "Category Label": "MET"
  }
]

API: above_or_equal(metric=inhibition at 10 µM, cutoff=60%) for item N#CCCn1ncc2cc(-c3ccc(C4=NC5(CC5)C(=O)N4CC4CN(C(=O)C5CC5)C4)cc3)ccc21 NOT MET

Same thing, different molecule: O=C(N1CC(CN2C(=O)C3(CCOCC3)N=C2c2ccc(-c3ccc4cccnc4c3)cc2)C1)C(F)(F)F NOT MET

Same thing, different molecule: O=C(C1CC1)N1CC[C@@H](CN2C(=O)C3(CC3)N=C2c2ccc(-c3ccc4occc4c3)cn2)C1 MET

Same thing, different molecule: Cc1cc(-c2ccc3c(c2)c(Cl)nn3C)ccc1C1=NC2(CC2)C(=O)N1CC1CN(C(=O)C2CC2)C1 MET
